compounds and their reported residual activity
target: Serine/threonine-protein kinase D2 (Homo sapiens) (UniProt Q9BZL6); settings: at 1 µM
Sequence (Q9BZL6 whole entry): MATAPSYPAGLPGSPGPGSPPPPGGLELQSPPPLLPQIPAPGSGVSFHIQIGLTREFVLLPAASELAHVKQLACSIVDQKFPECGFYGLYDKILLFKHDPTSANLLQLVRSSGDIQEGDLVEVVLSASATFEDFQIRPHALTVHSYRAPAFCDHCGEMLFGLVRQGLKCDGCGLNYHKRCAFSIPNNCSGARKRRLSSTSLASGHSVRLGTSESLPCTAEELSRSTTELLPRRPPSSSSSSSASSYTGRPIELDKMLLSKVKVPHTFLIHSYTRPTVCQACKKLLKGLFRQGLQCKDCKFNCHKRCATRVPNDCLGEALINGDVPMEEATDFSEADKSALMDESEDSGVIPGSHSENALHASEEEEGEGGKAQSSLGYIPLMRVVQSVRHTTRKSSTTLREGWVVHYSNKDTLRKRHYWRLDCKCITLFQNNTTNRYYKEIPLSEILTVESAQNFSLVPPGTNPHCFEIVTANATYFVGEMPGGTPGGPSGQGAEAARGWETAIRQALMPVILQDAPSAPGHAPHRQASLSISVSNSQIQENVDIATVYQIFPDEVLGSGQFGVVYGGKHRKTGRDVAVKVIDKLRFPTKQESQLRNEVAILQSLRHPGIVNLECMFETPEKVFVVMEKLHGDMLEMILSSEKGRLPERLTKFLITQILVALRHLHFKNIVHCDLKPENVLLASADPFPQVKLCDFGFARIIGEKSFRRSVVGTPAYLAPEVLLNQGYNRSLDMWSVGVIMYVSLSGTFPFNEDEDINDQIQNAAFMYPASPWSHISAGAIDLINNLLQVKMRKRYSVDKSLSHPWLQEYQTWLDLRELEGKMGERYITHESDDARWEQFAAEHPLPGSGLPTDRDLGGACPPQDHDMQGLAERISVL
Numeric answer only, unit % assumed.

{"COMPOUND": "Cn1sc(=O)n(Cc2ccccc2)c1=O", "TESTED SYSTEM": "Serine/threonine-protein kinase D2 (Homo sapiens) (UniProt Q9BZL6)", "residual activity (%)": 99}

-- ask Recorded residual activity for O=S(=O)(c1cccc2cnccc12)N1CCCNCC1 , please?
-- reply 100

-- ask Recorded residual activity for CC(C)(C)c1nc2c3ccc(F)cc3c3c(=O)[nH]ccc3c2[nH]1 , please?
-- reply 40

----------
target: Receptor-interacting serine/threonine-protein kinase 2 (Homo sapiens) (UniProt O43353); conditions: at 10 µM;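 also: residual kinase activity of the enzyme remaining, given as percent of control, assayed in 8 mM MOPS pH 7.0 buffer with 0.2 mM EDTA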
Sequence (O43353 whole entry): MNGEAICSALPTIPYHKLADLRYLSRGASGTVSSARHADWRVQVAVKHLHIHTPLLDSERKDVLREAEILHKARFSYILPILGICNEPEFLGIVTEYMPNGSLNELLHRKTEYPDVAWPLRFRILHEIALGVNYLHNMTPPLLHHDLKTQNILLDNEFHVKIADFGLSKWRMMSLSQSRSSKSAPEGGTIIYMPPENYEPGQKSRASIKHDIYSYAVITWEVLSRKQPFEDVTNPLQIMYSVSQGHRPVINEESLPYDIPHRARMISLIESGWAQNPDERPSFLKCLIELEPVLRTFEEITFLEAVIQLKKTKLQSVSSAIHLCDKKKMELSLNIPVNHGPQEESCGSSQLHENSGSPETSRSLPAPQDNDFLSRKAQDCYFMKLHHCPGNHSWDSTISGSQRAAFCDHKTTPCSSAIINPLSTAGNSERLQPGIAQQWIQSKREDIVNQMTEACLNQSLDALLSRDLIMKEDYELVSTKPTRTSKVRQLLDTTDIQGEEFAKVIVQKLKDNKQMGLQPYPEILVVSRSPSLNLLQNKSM
Description: Millipore: Percentage of residual kinase activity of RIPK2 at 10uM relative to control. Control inhibitor: Phosphoric acid* at 0.3uM. Buffer: 8 mM MOPS pH 7.0, 0.2 mM EDTA
EXPERIMENTAL READOUT: residual activity (%)
Numeric answer only, unit % assumed.

Below, 5 compounds whose answers are already recorded.
{"SMILES REPRESENTATION": "O=C1NC(=O)C(c2cn(CCCn3ccnc3)c3ccccc23)=C1Nc1ccccc1", "residual activity [%]": 77}
{"SMILES REPRESENTATION": "O=C(c1ccccc1)c1ccc(N2CCOCC2)cc1O", "residual activity [%]": 87}
{"SMILES REPRESENTATION": "Nc1ncnc2c1cnn2-c1ccccc1", "residual activity [%]": 67}
{"SMILES REPRESENTATION": "O=C1NC(=O)C(c2c[nH]c3ccccc23)=C1c1c[nH]c2ccccc12", "residual activity [%]": 74}
{"SMILES REPRESENTATION": "COc1ccc(-c2cnc3c(-c4ccsc4)cnn3c2)cc1", "residual activity [%]": 92}

# context switch: different compound, same residual activity
-- ask Provide value of residual activity for this record tested with Receptor-interacting serine/threonine-protein kinase 2 (Homo sapiens) (UniProt O43353): O=C(Nc1ccc(Cl)cc1)c1ccccc1NCc1ccncc1
-- reply 78

----------
biological target: Serine/threonine-protein kinase MARK1 (Homo sapiens); conditions: at 1 µM
compounds and their reported residual activity
Numeric answer only, unit % assumed.

Below, 10 compounds whose answers are already recorded.
{"COMPOUND": "NCCNc1ncc(C(N)=O)c(Nc2cccc(C(F)(F)F)c2)n1", "READOUT UNITS": "%", "residual activity": 72}
{"COMPOUND": "Cc1cc(C)c(/C=C2\\C(=O)Nc3ccccc32)[nH]1", "READOUT UNITS": "%", "residual activity": 65}
{"COMPOUND": "CCCC(=O)Oc1ccc2[nH]c(C(=O)c3cc4ccccc4[nH]3)cc2c1", "READOUT UNITS": "%", "residual activity": 80}
{"COMPOUND": "COc1ccc2c(c1)c(C1=C(c3c[nH]c4ccccc34)C(=O)NC1=O)cn2CCCN(C)C", "READOUT UNITS": "%", "residual activity": 75}
{"COMPOUND": "O=C(c1ccccc1)c1ccc(N2CCOCC2)cc1O", "READOUT UNITS": "%", "residual activity": 93}
{"COMPOUND": "O=C(NC(NC(=S)Nc1ccc(F)c([N+](=O)[O-])c1)C(Cl)(Cl)Cl)C(c1ccccc1)c1ccccc1 (stereo unspecified)", "READOUT UNITS": "%", "residual activity": 96}
{"COMPOUND": "Cn1sc(=O)n(Cc2ccccc2)c1=O", "READOUT UNITS": "%", "residual activity": 76}
{"COMPOUND": "CCCCc1c(-c2ccc(O)cc2)[nH]c2nccnc12", "READOUT UNITS": "%", "residual activity": 74}
{"COMPOUND": "CC(C)c1nn(-c2c(Cl)cccc2Cl)c2nc(Cc3ccc(OCCO)cc3)[nH]c(=O)c12", "READOUT UNITS": "%", "residual activity": 80}
{"COMPOUND": "Cn1c2ccccc2c2c3c(c4c5ccccc5n(CCC#N)c4c21)CNC3=O", "READOUT UNITS": "%", "residual activity": 4}

-- ask Provide value of residual activity for this record tested with Serine/threonine-protein kinase MARK1 (Homo sapiens): Nc1ncnc2c1cnn2-c1ccccc1
-- reply 89

----------
compounds and their reported residual activity
target: Protein-tyrosine kinase 2-beta (Homo sapiens) (UniProt Q14289); details: at 10 µM
Sequence (Q14289 whole entry, looked up): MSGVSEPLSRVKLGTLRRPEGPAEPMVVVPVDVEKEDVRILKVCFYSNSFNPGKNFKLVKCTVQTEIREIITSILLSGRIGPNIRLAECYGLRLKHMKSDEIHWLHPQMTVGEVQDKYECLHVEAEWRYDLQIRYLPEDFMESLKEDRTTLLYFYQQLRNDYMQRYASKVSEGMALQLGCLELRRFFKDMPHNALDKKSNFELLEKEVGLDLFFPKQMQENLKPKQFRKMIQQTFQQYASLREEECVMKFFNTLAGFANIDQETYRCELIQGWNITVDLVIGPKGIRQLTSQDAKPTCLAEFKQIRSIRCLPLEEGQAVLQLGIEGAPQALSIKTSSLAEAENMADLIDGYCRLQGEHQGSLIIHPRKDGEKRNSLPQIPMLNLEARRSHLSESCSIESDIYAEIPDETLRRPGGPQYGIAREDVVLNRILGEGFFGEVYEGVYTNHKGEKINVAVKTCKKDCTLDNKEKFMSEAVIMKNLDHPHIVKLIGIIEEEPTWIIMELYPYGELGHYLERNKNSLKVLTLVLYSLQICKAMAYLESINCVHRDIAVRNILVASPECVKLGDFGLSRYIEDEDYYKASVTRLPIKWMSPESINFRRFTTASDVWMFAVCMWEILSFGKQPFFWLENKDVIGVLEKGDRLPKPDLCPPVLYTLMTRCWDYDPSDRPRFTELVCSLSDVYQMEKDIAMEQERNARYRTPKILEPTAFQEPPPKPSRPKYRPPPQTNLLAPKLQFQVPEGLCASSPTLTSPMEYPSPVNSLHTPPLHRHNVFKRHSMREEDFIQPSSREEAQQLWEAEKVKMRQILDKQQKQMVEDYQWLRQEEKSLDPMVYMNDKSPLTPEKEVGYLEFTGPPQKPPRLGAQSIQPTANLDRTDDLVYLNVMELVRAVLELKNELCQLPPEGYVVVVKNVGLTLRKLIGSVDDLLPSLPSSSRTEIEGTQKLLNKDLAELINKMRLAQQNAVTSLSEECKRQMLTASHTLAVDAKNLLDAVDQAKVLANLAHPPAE
Numeric answer only, unit % assumed.

Below, 2 compounds whose answers are already recorded.
{"SMILES REPRESENTATION": "CC(C)c1nn(-c2c(Cl)cccc2Cl)c2nc(Cc3ccc(OCCO)cc3)[nH]c(=O)c12", "READOUT UNITS": "%", "residual activity": 99}
{"SMILES REPRESENTATION": "CCCCc1c(-c2ccc(OC)cc2)[nH]c2nccnc12", "READOUT UNITS": "%", "residual activity": 32}

-- ask Recorded residual activity for COc1cc2nccc(Oc3ccc(NC(=S)NC(=O)c4ccccc4C)cc3)c2cc1OC , please?
-- reply 60

-- ask Recorded residual activity for O=c1cc(N2CCNCC2)oc2c(-c3ccccc3)cccc12 , please?
-- reply 96

-- ask Recorded residual activity for Nc1ncnc2[nH]nc(Nc3ccc(F)cc3)c12 , please?
-- reply 79

----------
compounds and their reported residual activity
target: Serine/threonine-protein kinase 24 (Homo sapiens); details: at 10 µM
Numeric answer only, unit % assumed.

{"COMPOUND": "CC(C)(C)n1nc(Cc2cccc3ccccc23)c2c(N)ncnc21", "EXPERIMENTAL READOUT": "residual activity", "VALUE OBSERVED": 32}
{"COMPOUND": "COc1ccc2c(c1)c(C1=C(c3c[nH]c4ccccc34)C(=O)NC1=O)cn2CCCN(C)C", "EXPERIMENTAL READOUT": "residual activity", "VALUE OBSERVED": 5}
{"COMPOUND": "COc1ccc(-c2cnc3c(-c4ccsc4)cnn3c2)cc1", "EXPERIMENTAL READOUT": "residual activity", "VALUE OBSERVED": 81}
{"COMPOUND": "CCCCc1c(-c2ccc(OC)cc2)[nH]c2nccnc12", "EXPERIMENTAL READOUT": "residual activity", "VALUE OBSERVED": 60}
{"COMPOUND": "O=C(NC(NC(=S)Nc1ccc(F)c([N+](=O)[O-])c1)C(Cl)(Cl)Cl)C(c1ccccc1)c1ccccc1 (stereo unspecified)", "EXPERIMENTAL READOUT": "residual activity", "VALUE OBSERVED": 82}

-- ask Recorded residual activity for N#C/C(=C1/Nc2ccccc2S1)c1ccnc(NCCc2cccnc2)n1 , please?
-- reply 61

----------
compounds and their reported residual activity
molecular target: Ribosomal protein S6 kinase alpha-4 (Homo sapiens) (UniProt O75676); details: at 10 µM
Sequence (O75676 whole entry, looked up): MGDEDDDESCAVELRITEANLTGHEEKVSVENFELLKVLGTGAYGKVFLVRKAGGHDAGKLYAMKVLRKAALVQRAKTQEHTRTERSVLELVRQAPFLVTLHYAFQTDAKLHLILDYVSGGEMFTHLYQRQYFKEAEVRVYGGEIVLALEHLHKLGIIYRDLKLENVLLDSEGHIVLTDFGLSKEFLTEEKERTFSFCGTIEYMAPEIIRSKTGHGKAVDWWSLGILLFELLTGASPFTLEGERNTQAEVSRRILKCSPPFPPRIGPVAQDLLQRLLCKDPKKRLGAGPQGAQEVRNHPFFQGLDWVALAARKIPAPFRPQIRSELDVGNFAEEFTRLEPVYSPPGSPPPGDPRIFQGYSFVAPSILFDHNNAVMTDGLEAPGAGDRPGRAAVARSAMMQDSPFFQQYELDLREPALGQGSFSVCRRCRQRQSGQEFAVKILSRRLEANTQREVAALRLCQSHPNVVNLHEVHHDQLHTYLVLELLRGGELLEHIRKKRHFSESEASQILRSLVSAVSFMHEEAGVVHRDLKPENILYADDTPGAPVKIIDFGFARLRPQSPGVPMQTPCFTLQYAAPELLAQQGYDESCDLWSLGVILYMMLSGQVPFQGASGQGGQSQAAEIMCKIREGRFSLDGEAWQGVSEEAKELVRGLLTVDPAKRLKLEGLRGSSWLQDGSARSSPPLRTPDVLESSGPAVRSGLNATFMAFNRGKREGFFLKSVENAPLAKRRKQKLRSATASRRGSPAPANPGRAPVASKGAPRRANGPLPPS
Numeric answer only, unit % assumed.

Below, 4 compounds whose answers are already recorded.
{"SMILES REPRESENTATION": "NCCNc1ncc(C(N)=O)c(Nc2cccc(C(F)(F)F)c2)n1", "residual activity / %": 81}
{"SMILES REPRESENTATION": "CCCCc1c(-c2ccc(O)cc2)[nH]c2nccnc12", "residual activity / %": 85}
{"SMILES REPRESENTATION": "O=C(c1ccccc1)c1ccc(N2CCOCC2)cc1O", "residual activity / %": 100}
{"SMILES REPRESENTATION": "N#C/C(=C\\c1ccc(O)c(O)c1)C(=O)NCc1ccccc1", "residual activity / %": 74}

-- ask Recorded residual activity for O=S(=O)(c1cccc2cnccc12)N1CCCNCC1 , please?
-- reply 21

-- ask Recorded residual activity for COc1ccc(-c2cnc3c(-c4ccsc4)cnn3c2)cc1 , please?
-- reply 95

-- ask Recorded residual activity for NC(=O)Nc1sc(-c2ccc(F)cc2)cc1C(N)=O , please?
-- reply 46

-- ask Recorded residual activity for Nc1ncnc2c1cnn2-c1ccccc1 , please?
-- reply 86

-- ask Recorded residual activity for O=C(c1cc2cc(O)ccc2[nH]1)c1cc2cc(O)ccc2[nH]1 , please?
-- reply 27

-- ask Recorded residual activity for CCCC(=O)Oc1ccc2[nH]c(C(=O)c3cc4ccccc4[nH]3)cc2c1 , please?
-- reply 99

-- ask Recorded residual activity for Nc1ncnc2[nH]nc(Nc3ccc(F)cc3)c12 , please?
-- reply 74

-- ask Recorded residual activity for O=C1NC(=O)C(c2cn(CCCn3ccnc3)c3ccccc23)=C1Nc1ccccc1 , please?
-- reply 4

-- ask Recorded residual activity for O=C(Nc1ccc(Cl)cc1)c1ccccc1NCc1ccncc1 , please?
-- reply 101

-- ask Recorded residual activity for Fc1ccc(-c2nc3n(c2-c2ccncc2)CCS3)cc1 , please?
-- reply 85

----------
compounds and their reported residual activity
biological target: Calcium/calmodulin-dependent protein kinase type II subunit delta (Homo sapiens) (UniProt Q13557); conditions: at 10 µM
Sequence (Q13557 whole entry): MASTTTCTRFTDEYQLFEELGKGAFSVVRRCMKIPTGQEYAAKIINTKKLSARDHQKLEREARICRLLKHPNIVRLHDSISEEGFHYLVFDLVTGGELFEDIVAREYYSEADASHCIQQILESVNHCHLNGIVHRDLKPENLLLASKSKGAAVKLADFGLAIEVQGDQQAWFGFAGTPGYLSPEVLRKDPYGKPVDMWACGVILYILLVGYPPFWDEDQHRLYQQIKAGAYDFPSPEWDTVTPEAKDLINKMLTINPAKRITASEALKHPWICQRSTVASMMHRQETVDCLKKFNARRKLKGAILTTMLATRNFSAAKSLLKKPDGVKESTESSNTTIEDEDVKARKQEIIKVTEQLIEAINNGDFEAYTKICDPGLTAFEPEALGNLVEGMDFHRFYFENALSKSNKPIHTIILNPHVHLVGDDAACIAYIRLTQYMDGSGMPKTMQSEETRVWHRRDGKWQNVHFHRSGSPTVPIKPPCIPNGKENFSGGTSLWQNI
Numeric answer only, unit % assumed.

Below, 6 compounds whose answers are already recorded.
{"SMILES REPRESENTATION": "O=S(=O)(NCCNC/C=C/c1ccc(Br)cc1)c1cccc2cnccc12", "residual activity [%]": 35}
{"SMILES REPRESENTATION": "O=C1NC(=O)C(c2c[nH]c3ccccc23)=C1c1c[nH]c2ccccc12", "residual activity [%]": 4}
{"SMILES REPRESENTATION": "c1ccc(-c2cnc(Nc3ccc(OCCN4CCCC4)cc3)s2)cc1", "residual activity [%]": 4}
{"SMILES REPRESENTATION": "O=C1NC(=O)C(c2cn(CCCO)c3ncccc23)=C1c1cnccn1", "residual activity [%]": 64}
{"SMILES REPRESENTATION": "CCOC(=O)c1c(C)[nH]c(/C=C2\\C(=O)Nc3ccccc32)c1C", "residual activity [%]": 59}
{"SMILES REPRESENTATION": "Nc1ncnc2[nH]nc(Nc3ccc(F)cc3)c12", "residual activity [%]": 26}

# context switch: different compound, same residual activity
-- ask Recorded residual activity for O=c1cc(N2CCNCC2)oc2c(-c3ccccc3)cccc12 , please?
-- reply 77
